pIC50: −log10 of the molar value.
In what follows, each item is paired with its pIC50 for baculovirus-expressed ALK (Homo sapiens, UniProt Q9UM73).

Past entries and their recorded results:
INSERT INTO results (smiles_data, reported_property, result) VALUES
  ('O=C(c1ccc(-c2cnc3c(c2)N(Cc2cc(Cl)ccc2C(F)(F)F)CCN3)cc1)N1CCN(c2ccc(Cl)c(Cl)c2)CC1', 'pIC50', '6.00 to 7.00'),
  ('O=C(c1cccc(-c2cnc3c(c2)N(Cc2cc(Cl)ccc2C(F)(F)F)CCN3)c1)N1CCC(c2noc3cc(F)ccc23)CC1', 'pIC50', '6.00 to 7.00'),
  ('O=C(NC1Cc2ccccc2C1)c1cccc(-c2cnc3c(c2)N(Cc2cc(Cl)ccc2C(F)(F)F)CCN3)c1', 'pIC50', '6.00 to 7.00');

Problem: Lab note: need pIC50 for `CN(C)CCn1cc(-c2cnc3c(c2)N(Cc2c(F)ccc(F)c2Cl)CCN3)cn1` on baculovirus-expressed ALK (Homo sapiens, UniProt Q9UM73), anyone have it?
Result: 6.00 to 7.00

* * *

# TARGET SYSTEM: c-Met (phospho-c-Met) in HT29 cells (Homo sapiens, UniProt P08581)
# Construct: endogenous in cells; host or cells: HT29, A549 (HGF-stimulated), GTL-16
# Sequence (P08581 25-1390): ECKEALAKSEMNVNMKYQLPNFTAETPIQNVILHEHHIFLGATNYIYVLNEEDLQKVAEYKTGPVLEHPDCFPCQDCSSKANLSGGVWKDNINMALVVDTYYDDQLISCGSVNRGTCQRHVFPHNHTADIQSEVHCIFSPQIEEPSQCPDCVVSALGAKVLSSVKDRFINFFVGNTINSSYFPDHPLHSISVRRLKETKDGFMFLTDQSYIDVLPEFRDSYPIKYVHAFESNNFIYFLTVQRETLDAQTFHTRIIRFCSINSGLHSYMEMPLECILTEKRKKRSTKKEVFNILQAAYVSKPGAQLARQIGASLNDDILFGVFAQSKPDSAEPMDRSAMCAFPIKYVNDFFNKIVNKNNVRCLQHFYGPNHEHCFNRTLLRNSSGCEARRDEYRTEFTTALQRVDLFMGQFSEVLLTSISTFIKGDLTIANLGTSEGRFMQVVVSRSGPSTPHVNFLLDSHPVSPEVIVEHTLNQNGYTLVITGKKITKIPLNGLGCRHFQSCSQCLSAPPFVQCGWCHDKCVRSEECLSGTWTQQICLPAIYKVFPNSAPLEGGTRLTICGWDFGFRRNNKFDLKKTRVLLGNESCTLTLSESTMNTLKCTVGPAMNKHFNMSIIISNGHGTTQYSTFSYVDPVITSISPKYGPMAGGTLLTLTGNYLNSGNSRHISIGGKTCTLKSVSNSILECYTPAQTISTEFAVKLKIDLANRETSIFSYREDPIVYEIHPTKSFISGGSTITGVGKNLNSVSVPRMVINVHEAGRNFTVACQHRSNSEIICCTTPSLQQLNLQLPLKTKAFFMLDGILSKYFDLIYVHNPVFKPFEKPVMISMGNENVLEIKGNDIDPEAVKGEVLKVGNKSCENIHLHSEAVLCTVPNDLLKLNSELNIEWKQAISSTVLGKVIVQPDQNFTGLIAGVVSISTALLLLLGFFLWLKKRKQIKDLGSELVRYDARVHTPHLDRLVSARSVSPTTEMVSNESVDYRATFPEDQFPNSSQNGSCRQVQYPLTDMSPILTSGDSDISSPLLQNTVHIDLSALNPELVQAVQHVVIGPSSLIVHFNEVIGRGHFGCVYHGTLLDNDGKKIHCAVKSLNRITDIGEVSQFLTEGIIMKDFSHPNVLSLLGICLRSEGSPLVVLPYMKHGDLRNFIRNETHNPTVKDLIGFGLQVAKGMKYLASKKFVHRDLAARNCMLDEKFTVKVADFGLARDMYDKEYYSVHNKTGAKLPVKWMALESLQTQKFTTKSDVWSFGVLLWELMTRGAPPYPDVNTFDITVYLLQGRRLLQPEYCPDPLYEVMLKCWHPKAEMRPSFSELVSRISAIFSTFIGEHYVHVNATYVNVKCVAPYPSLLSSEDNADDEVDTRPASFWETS
# EXPERIMENT SUMMARY: c-Met Cellular Activity/Autophosphorylation Assay, HT29 cells
# Type: cell-based
# REPORTED CONDITIONS: HT-29, 3 μM compound, read-out: c-Met autophosphorylation inhibition score, HT29 Cells (3 μM)
Below, each entry is listed alongside its reported inhibition at 3 µM.

Solved entries:
INSERT INTO measurements (smiles_data, reported_property, result) VALUES
  ('CN1CCN(c2ccc(-c3cnc4c(c3)N(S(=O)(=O)c3cc(F)ccc3F)CCN4)cn2)CC1', 'inhibition at 3 µM', '26 to 50%'),
  ('O=C(c1ccc(-c2cnc3c(c2)N(Cc2c(F)ccc(F)c2Cl)CCN3)cc1)N1CCC(N2CCCC2)CC1', 'inhibition at 3 µM', '0 to 25%'),
  ('Fc1ccc(F)c(CN2CCNc3ncc(-c4ccnc(N5CCOCC5)c4F)cc32)c1Cl', 'inhibition at 3 µM', '51 to 75%');

Please examine the following record next.
Problem: Name the recorded inhibition at 3 µM for `O=C(c1ccc(-c2cnc3c(c2)N(Cc2cc(Cl)ccc2C(F)(F)F)CCN3)cc1)N1CCC(N2CCOCC2)CC1` .
Result: 26 to 50%

* * *

Counter-ions that a name gives are not always drawn.
Reported IC50 for target or system baculovirus-expressed ALK (Homo sapiens, UniProt Q9UM73), by entry. Note: 1 µM ATP (Km level).

Some entries whose results are on file:
INSERT INTO assay_data (compound, reported_property, result) VALUES
  ('O=C(c1cccc(-c2cnc3c(c2)N(Cc2cc(Cl)ccc2C(F)(F)F)CCN3)c1)N1CCN(c2ncnc3ccsc23)CC1', 'IC50', '100 to 1000 nM'),
  ('CC1(C)CN(Cc2cc(F)ccc2F)c2cc(-c3ccc(C(=O)N4CCC[C@H]4CN4CCCC4)cc3)cnc2N1', 'IC50', '1000 to 10000 nM'),
  ('O=C(NC1CCN(Cc2ccccc2)CC1)c1ccc(-c2cnc3c(c2)N(Cc2cc(Cl)ccc2C(F)(F)F)CCN3)cc1', 'IC50', '100 to 1000 nM'),
  ('Cc1cc(N2CCN(C(=O)c3cccc(-c4cnc5c(c4)N(Cc4cc(Cl)ccc4C(F)(F)F)CCN5)c3)CC2)c2ccccc2n1', 'IC50', '100 to 1000 nM');

Proceed to the following item.
Problem: // lookup IC50 | system=baculovirus-expressed ALK (Homo sapiens, UniProt Q9UM73) | key= CN(C)CCCCNC(=O)c1ccc(-c2cnc3c(c2)N(Cc2ccccc2)C(=O)CN3)cc1 [Example 15, trifluoroacetic acid salt]; note: 1 µM ATP (Km level)
Result: 1000 to 10000 nM

* * *

# TARGET SYSTEM: c-Met (phospho-c-Met) in HT29 cells (Homo sapiens, UniProt P08581)
# Construct: endogenous in cells; host or cells: HT29, A549 (HGF-stimulated), GTL-16
# EXPERIMENT SUMMARY: c-Met Cellular Activity/Autophosphorylation Assay, HT29 cells
# Type: cell-based
# REPORTED CONDITIONS: HT-29, 3 μM compound, read-out: c-Met autophosphorylation inhibition score, HT29 Cells (3 μM)
This section presents compounds with their documented inhibition at 3 µM values.

INSERT INTO assay_data (compound, target_system, reported_property, result) VALUES
  ('CN1CCN(c2ccc(-c3cnc4c(c3)N(Cc3c(F)ccc(F)c3Cl)CCN4)cn2)CC1 [Example 185]', 'c-Met (phospho-c-Met) in HT29 cells (Homo sapiens, UniProt P08581)', 'inhibition at 3 µM', '76 to 100%'),
  ('CN1CCN(c2ccc(-c3cnc4c(c3)N(Cc3cc(Cl)ccc3C(F)(F)F)CCN4)cn2)CC1 [Example 118]', 'c-Met (phospho-c-Met) in HT29 cells (Homo sapiens, UniProt P08581)', 'inhibition at 3 µM', '51 to 75%'),
  ('O=C(c1ccc(-c2cnc3c(c2)N(Cc2cc(F)ccc2F)CCN3)cn1)N1CCOCC1 [Example 76]', 'c-Met (phospho-c-Met) in HT29 cells (Homo sapiens, UniProt P08581)', 'inhibition at 3 µM', '26 to 50%');

Now look at this one.
Problem: // lookup inhibition at 3 µM for O=C(c1ccc(-c2cnc3c(c2)N(Cc2c(Cl)cccc2Cl)CCN3)cc1)N1CCC(N2CCCC2)CC1 [Example 163]
Result: 26 to 50%

* * *

# TARGET SYSTEM: baculovirus-expressed ALK (Homo sapiens); note: 1 µM ATP (Km level)
# Sequence (Q9UM73 19-1620): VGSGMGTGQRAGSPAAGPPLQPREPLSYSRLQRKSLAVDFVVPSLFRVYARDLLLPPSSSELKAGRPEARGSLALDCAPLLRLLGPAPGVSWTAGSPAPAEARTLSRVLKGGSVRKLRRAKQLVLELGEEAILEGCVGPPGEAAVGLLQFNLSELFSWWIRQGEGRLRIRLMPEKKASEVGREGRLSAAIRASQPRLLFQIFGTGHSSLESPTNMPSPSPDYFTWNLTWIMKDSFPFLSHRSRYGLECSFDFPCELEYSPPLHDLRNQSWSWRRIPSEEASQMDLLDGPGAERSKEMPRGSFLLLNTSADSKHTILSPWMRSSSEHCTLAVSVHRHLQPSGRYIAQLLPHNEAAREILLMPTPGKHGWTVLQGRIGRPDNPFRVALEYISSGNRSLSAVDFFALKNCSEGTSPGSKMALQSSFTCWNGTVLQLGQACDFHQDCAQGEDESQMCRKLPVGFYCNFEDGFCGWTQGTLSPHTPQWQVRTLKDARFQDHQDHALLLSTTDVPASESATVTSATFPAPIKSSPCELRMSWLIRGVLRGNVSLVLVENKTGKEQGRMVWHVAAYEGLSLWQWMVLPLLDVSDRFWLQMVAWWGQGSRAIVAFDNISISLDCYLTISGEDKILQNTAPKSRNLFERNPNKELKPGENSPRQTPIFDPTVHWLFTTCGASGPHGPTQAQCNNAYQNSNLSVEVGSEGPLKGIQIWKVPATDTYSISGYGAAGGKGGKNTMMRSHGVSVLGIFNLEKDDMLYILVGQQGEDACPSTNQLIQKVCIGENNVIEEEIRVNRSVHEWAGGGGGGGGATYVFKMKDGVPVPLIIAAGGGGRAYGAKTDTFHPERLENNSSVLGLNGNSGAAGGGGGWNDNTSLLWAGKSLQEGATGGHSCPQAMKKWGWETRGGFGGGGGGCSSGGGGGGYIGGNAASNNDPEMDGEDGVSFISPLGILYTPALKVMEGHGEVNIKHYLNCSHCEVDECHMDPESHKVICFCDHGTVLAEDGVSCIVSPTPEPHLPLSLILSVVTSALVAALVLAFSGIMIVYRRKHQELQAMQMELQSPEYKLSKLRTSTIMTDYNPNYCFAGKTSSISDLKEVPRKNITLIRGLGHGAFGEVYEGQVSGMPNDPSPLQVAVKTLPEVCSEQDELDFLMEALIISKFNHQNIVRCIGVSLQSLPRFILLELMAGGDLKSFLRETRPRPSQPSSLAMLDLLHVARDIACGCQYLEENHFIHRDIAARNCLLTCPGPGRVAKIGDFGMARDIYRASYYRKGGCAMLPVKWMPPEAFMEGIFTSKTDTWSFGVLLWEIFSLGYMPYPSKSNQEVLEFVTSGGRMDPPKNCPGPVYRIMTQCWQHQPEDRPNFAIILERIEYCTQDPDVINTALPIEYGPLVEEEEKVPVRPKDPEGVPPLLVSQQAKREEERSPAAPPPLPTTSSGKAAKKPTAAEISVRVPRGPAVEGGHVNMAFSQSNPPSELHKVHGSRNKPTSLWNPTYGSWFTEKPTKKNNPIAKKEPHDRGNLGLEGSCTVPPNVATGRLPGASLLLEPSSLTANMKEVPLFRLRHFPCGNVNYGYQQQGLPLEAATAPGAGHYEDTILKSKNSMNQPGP
Where a name gives a salt, the structure may show the parent alone.
Item-by-item account of IC50

Sample answers from the record:
INSERT INTO assay_data (molecule, reported_property, result) VALUES
  ('FC(F)(F)c1ccc(CN2CCNc3ncc(-c4ccc(N5CCOCC5)nc4)cc32)o1', 'IC50', '1 to 10 µM'),
  ('OC1CNc2ncc(I)cc2N1Cc1cc(F)ccc1C(F)(F)F (stereo not shown)', 'IC50', '10 to 100 µM'),
  ('CN1CCN(C(=O)c2ccc(-c3cnc4c(c3)C(O)CCN4)cc2)CC1 (stereo not shown)', 'IC50', '> 100 µM');

Problem: API: value(readout=IC50, system=baculovirus-expressed ALK (Homo sapiens)) for record CC(c1cc(F)ccc1F)N1CCNc2ncc(I)cc21 (stereo not shown); note: 1 µM ATP (Km level)
Result: > 100 µM

Problem: Short answer please: IC50, baculovirus-expressed ALK (Homo sapiens), entry `O=C(c1ccc(-c2cnc3c(c2)N(Cc2cc(Cl)ccc2Cl)CCN3)cc1)N1CCC(N2CCCC2)CC1`
Result: < 0.1 µM

Problem: // lookup IC50 | system=baculovirus-expressed ALK (Homo sapiens) | key= `CC(=O)N1CCN(C(=O)c2cnc3c(c2)N(Cc2cc(Cl)ccc2Cl)CCN3)CC1`; note: 1 µM ATP (Km level)
Result: 10 to 100 µM

Problem: Form field: IC50 recorded for O=C1CNc2ncc(-c3cccc(C(=O)N4CCC[C@H]4CN4CCCC4)c3)cc2N1Cc1ccccc1 [Example 18, trifluoroacetic acid salt] with baculovirus-expressed ALK (Homo sapiens) (enter value)
Result: 1 to 10 µM

Problem: Query IC50 on baculovirus-expressed ALK (Homo sapiens) for `O=C(c1ccc(-c2cnc3c(c2)N(Cc2cc(Cl)ccc2C(F)(F)F)CCN3)cc1)N1CCN(c2cccc(C(F)(F)F)c2)CC1`
Result: 0.1 to 1 µM

* * *

# key: entry, value: inhibition at 1 µM
# TARGET SYSTEM: c-Met (phospho-c-Met) in A549 cells (Homo sapiens)
# Construct: endogenous in cells; host or cells: HT29, A549 (HGF-stimulated), GTL-16
# Sequence (P08581 25-1390): as the sequence (P08581 25-1390) above
# EXPERIMENT SUMMARY: c-Met Cellular Activity/Autophosphorylation Assay, A549 cells (HGF stimulated)
# Format: cell-based
# REPORTED CONDITIONS: 1 μM compound, 50 ng/mL HGF, read-out: c-Met autophosphorylation inhibition score, A549 Cells (1 μM)

INSERT INTO measurements (molecule, reported_property, result) VALUES
  ('O=C(c1ccc(-c2cnc3c(c2)N(Cc2c(Cl)cccc2Cl)CCN3)cc1)N1CCC[C@H]1CN1CCCC1', 'inhibition at 1 µM', '0 to 25%'),
  ('O=C(c1ccc(-c2cnc3c(c2)N(Cc2cc(Cl)ccc2Cl)CCN3)cc1)N1CCC[C@H]1CN1CCCC1', 'inhibition at 1 µM', '0 to 25%'),
  ('CN1CCN(c2ccc(-c3cnc4c(c3)N(Cc3cc(C(F)(F)F)ccc3Cl)CCN4)cn2)CC1', 'inhibition at 1 µM', '0 to 25%'),
  ('CN1CCN(c2ccc(-c3cnc4c(c3)N(S(=O)(=O)c3cc(F)ccc3F)CCN4)cn2)CC1', 'inhibition at 1 µM', '0 to 25%'),
  ('CC(c1c(F)ccc(F)c1Cl)N1CCNc2ncc(-c3ccc(N4CCN(C)CC4)nc3)cc21 (stereo not drawn)', 'inhibition at 1 µM', '0 to 25%');

Problem: If you can, please state the reported inhibition at 1 µM value of `CC(C)(C)OC(=O)NCC#Cc1cnc2c(c1)N(Cc1cc(Cl)ccc1Cl)CCN2` .
Result: 0 to 25%

Problem: Which inhibition at 1 µM is listed for `CN1CCN(c2ccc(-c3cnc4c(c3)N(Cc3cc(F)ccc3F)CCN4)cn2)CC1` ?
Result: 0 to 25%

Problem: Quick one: inhibition at 1 µM for `O=C(c1ccc(-c2cnc3c(c2)N(Cc2c(Cl)cccc2Cl)CCN3)cc1)N1CCC(N2CCCC2)CC1` ?
Result: 0 to 25%

Problem: Look up inhibition at 1 µM: `CN1CCN(c2cc(-c3cnc4c(c3)N(Cc3c(F)ccc(F)c3Cl)CCN4)ccn2)CC1`
Result: 0 to 25%

Problem: Given the entry `CN1CCN(c2ccc(-c3cnc4c(c3)N(Cc3cc(Cl)ccc3C(F)(F)F)CCN4)cn2)CC1` , report its measured inhibition at 1 µM.
Result: 0 to 25%

Problem: Report inhibition at 1 µM for `O=C1CNc2ncc(-c3ccc(C(=O)N4CCC[C@H]4CN4CCCC4)cc3)cc2N1Cc1cc(Cl)ccc1Cl` please.
Result: 0 to 25%

Data credit: patent US7601716B2
